System: NCI/ADR-RES ovarian
Assay: NCI tumour cell line growth inhibition, 48 h; in the data active = GI50 below about 0.43 µM; inactive = the rest
Hi! Could you answer with just one of these? active, inactive

| structure-as-smiles | discrete-label |
| --- | --- |
| COc1ccc(/C=C(/C(=O)N2CCCC2)c2cc(OC)c(OC)c(OC)c2)cc1N | inactive |

Please share the test call associated with COc1cc2c3c(n(CCCN)c(=O)c2cc1OC)-c1ccc(F)cc1C3=O .
inactive

Similarly, CC[N+](CC)=c1ccc2nc3c(cc(NCc4ccccc4)c4ccccc43)oc-2c1 ?
active

Try this compound next: CN(C)c1ccc(/C=C/c2sc3ccc4ccccc4c3[n+]2C)cc1
inactive

Cc1ccc(S(=O)(=O)Oc2ccc3c4c(c(=O)oc3c2)CCCCC4)cc1 , same question.
inactive
